# Experiment Notes: Toxicity assessed in human T-cells using a colorimetric cell proliferation assay.
# Format: cell-based
The threshold is 20%. Values of NCC beneath it are tagged 1 (yes); values meeting or exceeding it are tagged 0 (no).

[
  {
    "Structure As Smiles": "N=C(N)CCNC(=O)c1cc(NC(=O)c2ccc(C(=O)Nc3cc(C(=O)NCCC(=N)N)n(CC4CC4)c3)s2)cn1CC1CC1",
    "Label Value": "0 (no)"
  },
  {
    "Structure As Smiles": "CC(C)CCn1cc(NC(=O)C2=CC=C(C(=O)Nc3cc(C(=O)NCCC(=N)N)n(CCC(C)C)c3)CC2)cc1C(=O)NCCC(=N)N",
    "Label Value": "0 (no)"
  },
  {
    "Structure As Smiles": "Cc1cc(C(=O)Nc2cc(C(=O)NCCC(=N)N)n(CC3CC3)c2)ccc1C(=O)Nc1cc(C(=O)NCCC(=N)N)n(CC2CC2)c1",
    "Label Value": "0 (no)"
  }
]

# input Please indicate whether the reported NCC of CC(C)CCn1cc(NC(=O)c2ccc(C(=O)Nc3cc(C(=O)NCCN=C(N)N)n(CCC(C)C)c3)cc2)cc1C(=O)NCCN=C(N)N is strictly below 20%.
# output 1 (yes)

# input Please indicate whether the reported NCC of CC(C)CCn1cc(NC(=O)c2ccc(C(=O)Nc3cc(C(=O)NCCC(=N)N)n(CCC(C)C)c3)c3ccccc23)cc1C(=O)NCCC(=N)N is strictly below 20%.
# output 1 (yes)

# input Please indicate whether the reported NCC of CCC/N=C(\N)CCNC(=O)c1cc(NC(=O)c2ccc(C(=O)Nc3cc(C(=O)NCC/C(N)=N/CCC)n(CCC(C)C)c3)cc2)cn1CCC(C)C is strictly below 20%.
# output 1 (yes)

# input Please indicate whether the reported NCC of N=C(N)CCNC(=O)c1cc(NC(=O)c2ccc(C(=O)Nc3cc(C(=O)NCCC(=N)N)n(CC4CC4)c3)cc2)cn1CC1CC1 is strictly below 20%.
# output 0 (no)

====

# Test system: Enterococcus
# Experiment Notes: In vitro antimicrobial activity against Vancomycin resistant enterococcus strain BM4147
# Assay type: functional
Kindly state log10 MIC for each of the entries shown.
Kindly note that the scale is log10 and the underlying MIC is in µM.

[
  {
    "Structure As Smiles": "N=C(N)CCNC(=O)c1cc(NC(=O)c2ccc(C(=O)Nc3cc(C(=O)NCCC(=N)N)n(CC4CC4)c3)c([N+](=O)[O-])c2)cn1CC1CC1",
    "Tested Target": "Enterococcus",
    "Measured Number": 0.45
  },
  {
    "Structure As Smiles": "Cc1cc(C(=O)Nc2cc(C(=O)NCCC(=N)N)n(CC3CC3)c2)ccc1C(=O)Nc1cc(C(=O)NCCC(=N)N)n(CC2CC2)c1",
    "Tested Target": "Enterococcus",
    "Measured Number": 0.45
  },
  {
    "Structure As Smiles": "N=C(N)CCNC(=O)c1cc(NC(=O)c2cnc(C(=O)Nc3cc(C(=O)NCCC(=N)N)n(CC4CC4)c3)cn2)cn1CC1CC1",
    "Tested Target": "Enterococcus",
    "Measured Number": 0.45
  },
  {
    "Structure As Smiles": "CC(C)CCn1cc(NC(=O)C2=CC=C(C(=O)Nc3cc(C(=O)NCCC(=N)N)n(CCC(C)C)c3)CC2)cc1C(=O)NCCC(=N)N",
    "Tested Target": "Enterococcus",
    "Measured Number": 0.15
  },
  {
    "Structure As Smiles": "Cn1cc(NC(=O)c2ccc(C(=O)Nc3cc(C(=O)NCCC(=N)N)n(C)c3)cc2)cc1C(=O)NCCC(=N)N",
    "Tested Target": "Enterococcus",
    "Measured Number": 1.35
  }
]

Give log10 MIC for each of the items listed below.
1. CCCn1cc(NC(=O)c2ccc(C(=O)Nc3cc(C(=O)NCCC(=N)N)n(CCC)c3)cc2)cc1C(=O)NCCC(=N)N
2. CC(C)CCn1cc(NC(=O)c2ccc(C(=O)Nc3cc(C(=O)NCCN)n(CCC(C)C)c3)cc2)cc1C(=O)NCCN
3. CC(C)CCn1cc(NC(=O)c2ccc(C(=O)Nc3cc(C(=O)NCCC(=N)N)n(CCC(C)C)c3)c([N+](=O)[O-])c2)cc1C(=O)NCCC(=N)N

# output
0.75
1.06
0.15
